tested.system: HIV-1 Env of SC422.8 (HIV-1)
assay.method.text: cell-based or functional assay
parameter.measured: neutralization IC50

Some solved entries appear below for comparison.
binder="CAP256-VRC26.01 (antibody, V domains shown) VH: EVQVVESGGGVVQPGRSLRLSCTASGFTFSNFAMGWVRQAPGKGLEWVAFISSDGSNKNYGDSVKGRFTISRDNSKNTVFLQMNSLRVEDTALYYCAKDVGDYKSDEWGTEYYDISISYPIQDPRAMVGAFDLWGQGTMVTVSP VL: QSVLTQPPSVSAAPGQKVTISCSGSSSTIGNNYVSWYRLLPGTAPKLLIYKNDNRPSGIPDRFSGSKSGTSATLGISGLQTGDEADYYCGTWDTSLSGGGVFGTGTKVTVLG" result="> 50 µg/mL"
binder="CAP256-VRC26.02 (antibody, V domains shown) VH: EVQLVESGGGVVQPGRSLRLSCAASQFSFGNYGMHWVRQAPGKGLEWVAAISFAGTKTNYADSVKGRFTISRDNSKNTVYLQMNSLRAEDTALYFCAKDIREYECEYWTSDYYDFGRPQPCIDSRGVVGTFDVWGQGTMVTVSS VL: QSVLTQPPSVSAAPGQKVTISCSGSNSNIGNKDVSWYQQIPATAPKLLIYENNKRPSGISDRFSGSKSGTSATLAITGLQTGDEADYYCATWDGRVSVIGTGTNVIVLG" result="> 50 µg/mL"
binder="CAP256-VRC26.06 (antibody, V domains shown) VH: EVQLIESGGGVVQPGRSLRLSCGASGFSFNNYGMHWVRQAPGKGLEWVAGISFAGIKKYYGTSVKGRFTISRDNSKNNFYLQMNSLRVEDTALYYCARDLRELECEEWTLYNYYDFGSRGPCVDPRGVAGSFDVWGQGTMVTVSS VL: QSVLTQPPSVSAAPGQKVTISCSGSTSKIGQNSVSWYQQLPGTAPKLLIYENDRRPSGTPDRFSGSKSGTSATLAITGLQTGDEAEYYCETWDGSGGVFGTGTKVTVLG" result="0.178 µg/mL"
binder="CAP256-VRC26.04 (antibody, V domains shown) VH: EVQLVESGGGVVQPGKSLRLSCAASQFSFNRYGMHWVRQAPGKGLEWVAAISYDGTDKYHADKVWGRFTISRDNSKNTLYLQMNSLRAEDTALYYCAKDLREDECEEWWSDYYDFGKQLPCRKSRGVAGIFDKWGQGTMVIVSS VL: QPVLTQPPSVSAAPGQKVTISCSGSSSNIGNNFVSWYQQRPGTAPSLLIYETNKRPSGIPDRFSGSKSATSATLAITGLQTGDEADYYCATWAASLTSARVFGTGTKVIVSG" result="> 50 µg/mL"

// query So what's the measured neutralization IC50 for this one? CAP256-VRC26.09 (antibody, V domains shown) VH: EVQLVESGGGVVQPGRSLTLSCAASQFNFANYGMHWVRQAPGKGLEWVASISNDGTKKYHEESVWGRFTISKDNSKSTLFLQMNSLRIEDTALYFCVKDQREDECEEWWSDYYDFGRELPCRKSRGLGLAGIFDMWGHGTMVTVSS VL: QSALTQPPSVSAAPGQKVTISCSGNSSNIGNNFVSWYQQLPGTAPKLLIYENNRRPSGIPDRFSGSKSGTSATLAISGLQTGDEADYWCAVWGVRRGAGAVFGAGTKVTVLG
// result > 50 µg/mL
